Here the recorded pIC50 is given for each entry.
biological target: Steroidogenic factor 1 (Homo sapiens, UniProt Q13285); experiment: inhibition of SF-1 LBD-driven luciferase – cell-based, CHO-K1, Gal4-SF-1 LBD, luciferase luminescence, counter-screen for RORA inhibitor project, dose response (AID 611)
Sequence (Q13285 whole entry, the tested form may be a part): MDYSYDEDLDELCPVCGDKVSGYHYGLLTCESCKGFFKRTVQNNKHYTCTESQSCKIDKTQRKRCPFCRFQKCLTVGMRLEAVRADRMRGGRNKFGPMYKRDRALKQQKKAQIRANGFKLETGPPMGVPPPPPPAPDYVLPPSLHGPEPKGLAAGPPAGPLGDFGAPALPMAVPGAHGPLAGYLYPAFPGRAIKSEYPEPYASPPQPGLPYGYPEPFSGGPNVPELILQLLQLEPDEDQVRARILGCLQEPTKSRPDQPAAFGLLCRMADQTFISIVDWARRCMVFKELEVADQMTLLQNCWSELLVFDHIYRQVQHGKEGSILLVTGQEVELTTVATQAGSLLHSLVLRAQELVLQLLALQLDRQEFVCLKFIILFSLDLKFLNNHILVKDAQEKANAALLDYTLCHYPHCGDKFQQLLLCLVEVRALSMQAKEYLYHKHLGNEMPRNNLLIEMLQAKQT
pIC50: −log10 of the molar value.
recorded-endpoint: pIC50

c1ccc(-n2ncc3c(N4CCCCC4)ncnc32)cc1
5.35
COc1ccc(-n2ncc3c(N4CCCCC4)ncnc32)cc1
5.70
C[S+]([O-])c1nc(-c2ccc(Br)cc2)cc(-c2ccccc2)c1C#N (stereo not given)
5.09
N#Cc1c(NC(=O)CSc2nc[nH]n2)sc2c1CCCCC2
6.63
N#Cc1c(NC(=O)CSc2nc(N)cc(=O)[nH]2)sc2c1CCCCCC2
4.84
Oc1c(CN2CCOCC2)cc(COCc2ccccc2)c2cccnc12
5.22
CC1CCc2nc(NC(=O)c3ccco3)sc2C1 (stereo not given)
5.48
O=C(CSc1nnc(COc2cccc3cccnc23)o1)N1CCc2ccccc21
5.40
COc1ccc(C(=O)NC(=O)Nc2cc(C)ccn2)cc1
5.48
CCn1nc(-c2cccs2)nc2c(=O)n(C)c(=O)nc1-2
5.66
Cn1nc(CC(=O)Nc2ccc3c(c2)OCCO3)c2ccccc2c1=O
5.20
CCOC(=O)C1CCN(c2ncnc3c2cnn3-c2ccc(Cl)cc2)CC1
5.24
Cc1cc(C(=O)CN2C(=O)c3ccccc3S2(=O)=O)c(C)n1CC1CCCO1 (stereo not given)
5.25

Attribution: BindingDB's records for doi:10.7270/Q2PR7TCX
